Value source: paper PMC12799544

# test details: Caco-2 bidirectional permeability assay
# Type: in vitro ADME, human
# condition details: human, Caco-2, pH 7.4
readout kind: Papp A→B at 2 h, 10 µM (×10⁻⁶ cm/s)
Please state the figure in ×10⁻⁶ cm/s; there is no need to write the unit.

# input For CCCCC[C@@H]1OC(=O)[C@@H](C)N(C)C(=O)[C@H](CCCCC)OC(=O)[C@@H](C)N(C)C(=O)[C@H](CC(=O)O)OC(=O)[C@@H](C)N(C)C(=O)[C@H](CCCCC)OC(=O)[C@@H](C)N(C)C1=O [activert] , what is its reported Papp A→B at 2 h, 10 µM?
# output 0.4

---

# test details: Parallel artificial membrane permeability assay
# Format: in vitro ADME
# condition details: PAMPA, pH 7.4, Permeability (experimental permeability rate)
readout kind: Papp at 500 µM

# input What value of Papp at 500 µM has been reported for the following compound? CCCCC[C@@H]1OC(=O)[C@@H](C)N(C)C(=O)[C@H](CCCCC)OC(=O)[C@@H](C)N(C)C(=O)[C@H](CC(=O)O)OC(=O)[C@@H](C)N(C)C(=O)[C@H](CCCCC)OC(=O)[C@@H](C)N(C)C1=O
# output < 2 ×10⁻⁶ cm/s
